# study system: T1, HLA-B60 (B*4001) (human)
# T1 construct: HLA class I on acid-stripped EBV-transformed B cells (B-LCL)
# experimental protocol: competition vs KESTC(FI)HLVL on stripped B-LCL, FACS
value type: pIC50
Please treat pIC50 as minus the base-10 logarithm of the molar concentration.

- binder: "DEALAIAAL [PRAME 37-45 DEALAIAAL]"
  pIC50: 5.81
- binder: "KDEALAIAAL [PRAME 36-45 KDEALAIAAL]"
  pIC50: 5.54

Query binder follows.
Exercise: Determine from records and report pIC50 for RELFPPLFM [PRAME 50-58 RELFPPLFM]
Key: 5.83
